Biological target: acetylcholine receptor
Experiment: SPR, AchR immobilized on CM5 chip, peptide 10 uM
RECORDED_METRIC: Binding affinity (RU)

Past entries and their recorded results:
KKCHMR [6mer-1-795]; 12
RKTNAR [6mer-1-770]; 29
KRRYTR [6mer-1-358]; 124
RKHNGR [6mer-1-748]; 24
RKLFCK [6mer-1-389]; 125
KRVVTK [6mer-1-336]; 154

I. RRHWDK [6mer-1-781]
II. RRPDAR [6mer-1-779]
III. KRLQLR [6mer-1-380]
Ask: Could you please sort these 3 entries by Binding affinity (RU) from high to low? Answer by listing the labels in the order asked for.
Result: III, II, I
(III: 121 RU, II: 30 RU, I: 16 RU)

I. KKYHHR [6mer-1-758]
II. KKGRLR [6mer-1-387]
Ask: Lower value of Binding affinity (RU) belongs to which: I or II ? Write down the label attached to your selection.
Result: I
(I: 33 RU, II: 148 RU)

I. KKQVLK [6mer-1-338]
II. KKTSIK [6mer-1-776]
Ask: Lower value of Binding affinity (RU) belongs to which: I or II ? Write down the label attached to your selection.
Result: II

A. KKLLCR [6mer-1-345]
B. KRIKEK [6mer-1-786]
Ask: Two entries are listed, A and B . Which one carries the higher Binding affinity (RU)? Write down the label attached to your selection.
Result: A
(A: 147 RU, B: 26 RU)
